# reported Human CP % Max Inhibition, hemolysis assay, 5% NHS; entries follow
TARGET_OR_SYSTEM: human C5 (human, UniProt P01031 19-1676)
ASSAY_NAME: cell-based or functional assay
Express your answer in %, writing the number without its unit.

>>> assay_value("H4H12166P6 (antibody, human IgG4, V domains shown, histidine-mutated CDR variant of H4H12166P; human IgG4 (S108P)) VH: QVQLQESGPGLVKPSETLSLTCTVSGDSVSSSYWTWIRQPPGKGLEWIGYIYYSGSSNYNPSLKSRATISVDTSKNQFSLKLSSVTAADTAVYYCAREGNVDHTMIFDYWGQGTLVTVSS VL: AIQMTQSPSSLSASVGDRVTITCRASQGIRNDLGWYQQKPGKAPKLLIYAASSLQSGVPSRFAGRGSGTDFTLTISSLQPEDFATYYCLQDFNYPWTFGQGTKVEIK")
98.1
>>> assay_value("H4H12166P2 (antibody, human IgG4, V domains shown, histidine-mutated CDR variant of H4H12166P; human IgG4 (S108P)) VH: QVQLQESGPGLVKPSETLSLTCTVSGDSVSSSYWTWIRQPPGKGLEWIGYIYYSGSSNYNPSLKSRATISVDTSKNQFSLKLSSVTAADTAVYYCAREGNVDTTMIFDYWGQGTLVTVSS VL: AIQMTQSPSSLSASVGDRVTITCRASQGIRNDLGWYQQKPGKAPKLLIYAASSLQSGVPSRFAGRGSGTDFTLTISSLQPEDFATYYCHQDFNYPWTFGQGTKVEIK")
98.2
>>> assay_value("H4H12166P9 (antibody, human IgG4, V domains shown, histidine-mutated CDR variant of H4H12166P; human IgG4 (S108P)) VH: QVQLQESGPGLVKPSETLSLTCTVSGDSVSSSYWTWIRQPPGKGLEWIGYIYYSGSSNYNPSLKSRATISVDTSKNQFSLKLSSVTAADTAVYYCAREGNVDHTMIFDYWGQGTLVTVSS VL: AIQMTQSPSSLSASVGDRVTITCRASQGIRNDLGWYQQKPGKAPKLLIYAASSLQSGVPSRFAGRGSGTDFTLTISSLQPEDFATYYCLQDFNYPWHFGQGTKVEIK")
93.7
>>> assay_value("H4H12166P7 (antibody, human IgG4, V domains shown, histidine-mutated CDR variant of H4H12166P; human IgG4 (S108P)) VH: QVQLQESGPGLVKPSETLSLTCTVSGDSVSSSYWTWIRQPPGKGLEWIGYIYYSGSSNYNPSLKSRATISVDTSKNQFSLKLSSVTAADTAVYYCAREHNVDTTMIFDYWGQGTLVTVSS VL: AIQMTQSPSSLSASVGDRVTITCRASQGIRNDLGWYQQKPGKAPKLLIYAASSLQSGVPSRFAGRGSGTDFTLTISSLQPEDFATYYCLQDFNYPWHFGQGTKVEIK")
93.7
>>> assay_value("H4H12166P4 (antibody, human IgG4, V domains shown, histidine-mutated CDR variant of H4H12166P; human IgG4 (S108P)) VH: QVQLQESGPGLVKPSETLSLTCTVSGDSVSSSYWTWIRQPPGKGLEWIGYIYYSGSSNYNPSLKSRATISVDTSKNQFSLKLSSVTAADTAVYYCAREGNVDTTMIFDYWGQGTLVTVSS VL: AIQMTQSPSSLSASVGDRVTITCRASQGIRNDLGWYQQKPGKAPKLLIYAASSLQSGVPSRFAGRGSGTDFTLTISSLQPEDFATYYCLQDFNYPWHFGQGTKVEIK")
98.6

Value of Human CP % Max Inhibition, hemolysis assay, 5% NHS reported for the binder H4H12166P8 (antibody, human IgG4, V domains shown, histidine-mutated CDR variant of H4H12166P; human IgG4 (S108P)) VH: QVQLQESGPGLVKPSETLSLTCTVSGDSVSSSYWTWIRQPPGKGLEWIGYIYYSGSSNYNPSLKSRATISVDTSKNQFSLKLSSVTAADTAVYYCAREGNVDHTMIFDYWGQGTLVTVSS VL: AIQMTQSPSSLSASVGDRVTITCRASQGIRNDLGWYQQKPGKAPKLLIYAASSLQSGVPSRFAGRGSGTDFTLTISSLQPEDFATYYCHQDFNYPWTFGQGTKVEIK is 95.7

Value of Human CP % Max Inhibition, hemolysis assay, 5% NHS reported for the binder H4H12166P10 (antibody, human IgG4, V domains shown, histidine-mutated CDR variant of H4H12166P; human IgG4 (S108P)) VH: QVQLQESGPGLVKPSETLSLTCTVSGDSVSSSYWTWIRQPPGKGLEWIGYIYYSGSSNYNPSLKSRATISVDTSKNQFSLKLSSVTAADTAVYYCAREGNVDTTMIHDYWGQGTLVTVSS VL: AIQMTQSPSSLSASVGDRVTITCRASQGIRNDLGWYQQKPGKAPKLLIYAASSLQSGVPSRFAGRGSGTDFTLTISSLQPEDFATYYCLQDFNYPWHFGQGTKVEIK is 74

Value of Human CP % Max Inhibition, hemolysis assay, 5% NHS reported for the binder H4H12166P5 (antibody, human IgG4, V domains shown, histidine-mutated CDR variant of H4H12166P; human IgG4 (S108P)) VH: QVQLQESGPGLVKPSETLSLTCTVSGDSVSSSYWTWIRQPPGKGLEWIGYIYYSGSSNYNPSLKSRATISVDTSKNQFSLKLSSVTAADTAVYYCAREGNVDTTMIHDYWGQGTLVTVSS VL: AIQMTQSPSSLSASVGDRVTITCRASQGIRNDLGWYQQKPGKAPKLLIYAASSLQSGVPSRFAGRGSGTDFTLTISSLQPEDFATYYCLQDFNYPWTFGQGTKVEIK is 97.1
